# PROTOCOL_CONDITIONS: in ethanol, 313.15 K
QUANTITY_NAME: solubility (mole fraction)
Output: the number by itself.

Tell me the measured solubility (mole fraction) of `O=C1NC(=O)c2cc([N+](=O)[O-])ccc21` , please.
0.00347

====

# PROTOCOL_CONDITIONS: in chloroform, 295.65 K
QUANTITY_NAME: solubility (mole fraction)
Output: the number by itself.

Tell me the measured solubility (mole fraction) of `O=C1NC(=O)c2cc([N+](=O)[O-])ccc21` , please.
0.00102

====

# PROTOCOL_CONDITIONS: in ethyl acetate, 288.15 K
QUANTITY_NAME: solubility (mole fraction)

Tell me the measured solubility (mole fraction) of `O=C1NC(=O)c2cc([N+](=O)[O-])ccc21` , please.
0.0131
